For each entry below, report its TGI value.
# System: DU-145 prostate
# assay explanation: NCI tumour cell line growth inhibition, 48 h
Where a SMILES comes first, the peptide text is derived from it. The star is where a group is joined. Fmoc = O=C(OCC1c2ccccc2-c2ccccc21)*; Boc = CC(C)(C)OC(=O)*

IN: Query (compound): Nc1ccc2c(c1)S(=O)(=O)c1cc(N)ccc1-2 ; field requested: TGI
OUT: > 100 µM

IN: How about this compound: CC1(C)O[C@@H](CP(c2ccc3ccccc3c2)c2ccc3ccccc3c2)[C@H](CP(c2ccc3ccccc3c2)c2ccc3ccccc3c2)O1
OUT: > 100 µM

IN: Consider next the compound CC(C)(C)OC(=O)NCCCCC(NC(=O)C(Cc1c[nH]c2ccccc12)NC(=O)OCC1c2ccccc2-c2ccccc21)C(=O)O (stereo unspecified) (Fmoc-Trp-Lys(Boc)-OH; configuration not given here) in the same way.
OUT: > 100 µM

IN: Please do the same for CC(C)CC1NC(=O)C(C(C)C)NC(=O)CC(C)COC(=O)C(CC(C)C)N(C)C(=O)C(C(C)C)NC(=O)C(C(C)C)OC1=O (stereo unspecified) as well.
OUT: > 50 µM

IN: Query CC(=O)NC1=CC(=O)C=C(Cl)C1=O next
OUT: > 100 µM

IN: How about this compound: N#C/C=C\c1ccc(-c2cc(C(F)(F)F)cc(C(F)(F)F)c2)o1
OUT: > 100 µM

* * *

# Tested on: U251 CNS
# assay explanation: NCI tumour cell line growth inhibition, 48 h
Can you tell me TGI for the items I'm about to list?

IN: Please report the recorded TGI for COc1c(OC2OC(CO)C(O)C(O)C2O)cc2c(c1OC)-c1ccc(OC)c(=O)cc1[C@@H](NC(C)=O)CC2 (stereo partly specified) .
OUT: > 100 µM

IN: Queued: Cc1ccc(S(=O)(=O)N/N=C2\CC3C4CCC3C2C4)cc1 (stereo unspecified)
OUT: > 100 µM

IN: // query: CN1CCN(Cc2ccc(NC(=O)c3cncc(C#Cc4ncc5ccccn45)c3)cc2C(F)(F)F)CC1
OUT: 6.39 µM

IN: // next record N#CC1([N+](=O)[O-])C=C1c1ccccc1 (stereo unspecified)
OUT: > 100 µM

IN: Also need N#Cc1c(Nc2ccccc2)[n+]([O-])c2ccc(Cl)cc2[n+]1[O-] , thanks.
OUT: 15.6 µM

IN: Do the same for NCCNc1ncnc2ccc(Cl)cc12 please
OUT: > 100 µM

* * *

# System: HS 578T breast
# assay explanation: NCI tumour cell line growth inhibition, 48 h
measurement type: TGI

IN: Need TGI, item O=C(O)CCCN=C(C(=NCCCC(=O)O)c1ccccc1)c1ccccc1
OUT: > 100 µM

IN: Item: CC1(C)N=C(N)N=C(N)N1c1ccc(CCC(=O)Nc2cccc(S(=O)(=O)F)c2)cc1
OUT: > 100 µM

IN: Similarly, O=C(CN1CCN(c2ccccn2)CC1)Nc1ccc(Cl)cc1C(=O)c1ccccc1Cl ?
OUT: > 100 µM

* * *

Can you tell me TGI for the items I'm about to list?
# Test system: CCRF-CEM leukemia
# assay explanation: NCI tumour cell line growth inhibition, 48 h

IN: Would you kindly share the measured TGI for C1COCCOP2(N3CC3)=NP(N3CC3)(=NP(N3CC3)(N3CC3)=N2)OCCOCCO1 (stereo not given) ?
OUT: > 100 µM

IN: Now the same for Cc1ccc2nnc(NS(=O)(=O)c3cc(C)c(Cl)cc3S)n2n1
OUT: > 100 µM

IN: And then Fc1ccc(C(OCCN2CCC3CCC(C2)N3C/C=C/c2cccnc2)c2ccc(F)cc2)cc1 (stereo not given) , what is it?
OUT: 17.5 µM

IN: Also check COc1cc(C2SC(N)=Nc3c2c(C)nn3C(=O)c2ccc(Cl)cc2)ccc1O (stereo not given)
OUT: > 10 µM

IN: Also need CCOC(=O)C(C(=O)OCC)C(NC(=O)Nc1cc(C(F)(F)F)ccc1OC)(C(F)(F)F)C(F)(F)F , thanks.
OUT: 70.9 µM

IN: Same again, this time with CC1(C)O[C@@H](CP(c2ccc3ccccc3c2)c2ccc3ccccc3c2)[C@H](CP(c2ccc3ccccc3c2)c2ccc3ccccc3c2)O1
OUT: > 100 µM

IN: Note, next up: O=c1c2cc([N+](=O)[O-])cnc2sn1-c1ccc(Br)cc1
OUT: 66.6 µM

IN: Try this molecule next: Nc1nc2c(ncn2CC(CO)CC(c2ccccc2)P(=O)(O)O)c(=O)[nH]1 (stereo not given)
OUT: > 100 µM

IN: Record: Cc1ccc(C(=O)N/N=C(\N=Nc2ccccc2)c2ccc(N(CCC#N)CCC#N)cc2C)cc1
OUT: > 100 µM

IN: Now try COc1ccc([Se]c2ccc(OC)cc2)cc1 .
OUT: > 100 µM
